This section presents sequences with their documented protein stability index values.
# ASSAY PROCEDURE: protein stability index of a GFP-peptide fusion (yeast GPS) (PSI 1-4); higher = more stable; sorted into four equal gates, so the index is relative within each strain
# EXPERIMENTAL SETUP: ubr1∆
# answer = number (no unit)

INPUT SEQUENCE	protein stability index
SEILIISSLMFDEEFDP [IRR1]	2.97

# query: protein stability index of entry TFSGALGKQSSSLLSRL [FAS2]
2.93

Do the same for GQHKNNTSLNINGWKFE [SWP82] please
2.99

Entry to check: LKSESATSQYLKQDLKK [YGL172W/NUP49]
2.95

How about NVRMDTMANILYYPQKP [RPB2] ?
2.99

Please give the result for KLRARLVEYGFDPSRIK [SMC2] too.
2.01

----------
# ASSAY PROCEDURE: protein stability index of a GFP-peptide fusion (yeast GPS) (PSI 1-4); higher = more stable; sorted into four equal gates, so the index is relative within each strain
# EXPERIMENTAL SETUP: pdr5∆
Some sequences, each annotated with its measured protein stability index.
// response body must contain only the number

INPUT SEQUENCE	protein stability index
HSKRELDSGDDQPQSSE [BRR2]	3.38

Look at this sequence and give its reported protein stability index. LFEQIGIRIKGKIVGFD [SME1]
1.85

// repeat for LEFRWLTSSKSVIVSQF [SIN4] and report
1.56

Queued: IQRFFALHYLVPFIIAA [COB]
1.17

Also need NQLLAALVAYTPTDVIG [RRP6] , thanks.
1.39

Ok, now LLLSPDQWYCIDKLEDL [ITC1]
3.4

Next record, please: SVQTFGKKKSATAVAHV [RPS16A]
2.49

VSSSLYERRFGPYFVGP [PUP3] , same question.
2.88

Param item: LEDQQRQQKLLLETKLR [SWI1]
2.65

Entry to check: MKVLEERNAFLSDYEVL [RPC17]
2.77

Another sequence to check: YPLLIRMSYGSHDKKTK [SRP14]
2.49

Try the sequence LKIYKVGDIVDIKANGS [RPL21B]
1.88

Now the same for GIGALFTQQELQKQMGI [RPC34]
3.39

# iterate: QSSSSTRSHEYGRKSFR [REC8]
2.92

Now the sequence QKNDTAAFKDIAKRQFK [RRP40]
3.33

----------
# ASSAY PROCEDURE: protein stability index of a GFP-peptide fusion (yeast GPS) (PSI 1-4); higher = more stable; sorted into four equal gates, so the index is relative within each strain
# EXPERIMENTAL SETUP: doa10∆
VALUE KIND: protein stability index

Known protein stability index results, listed for orientation:
INPUT SEQUENCE	protein stability index
HSNESSNETIGEIQLLF [IRR1]	2.68
MQIFVKTLTGKTITLEV [RPS31]	2.48
KLRARLVEYGFDPSRIK [SMC2]	2.73

Continue with the sequence presented below.
Value lookup for protein stability index; key = SIQDTSTVAKNVSFVLP [YCG1]
3.21

----------
# ASSAY PROCEDURE: protein stability index of a GFP-peptide fusion (yeast GPS) (PSI 1-4); higher = more stable; sorted into four equal gates, so the index is relative within each strain
# EXPERIMENTAL SETUP: san1∆
VALUE KIND: protein stability index
Give your answer as a number; write no unit.

State the recorded protein stability index for this entry: ELLREWLETYSENRDKF [IRR1]
3.61

Now the same for RYDCSFCGKKTVKRGAA [RPL43A]
2.21
